experiment.summary: Pharmacokinetics in mice
Assay type: in vivo
run.parameters: CD-1, mouse, plasma, po, 14b, p.o. (20 mg/kg)
endpoint.label: Cmax (µg/mL)
I only need the number, in µg/mL, no unit after it.

Cmax reported for this compound O=C(NCc1ccccc1)C(=O)[C@H](C[C@@H]1CCCNC1=O)NC(=O)[C@H](CC1CCCCC1)NC(=O)c1cc2ccccc2o1 [14b] : 0.29

---

experiment.summary: Pharmacokinetics in dogs
Assay type: in vivo
run.parameters: male, Beagle, dog, plasma, iv, i.v. (1 mg/kg), read-out: MRTINF_obs
endpoint.label: MRT inf (min)
Give the value in min but do not write min after it.

molecule	MRT inf [min]
O=C(NCc1ccccc1)C(=O)[C@H](C[C@@H]1CCCNC1=O)NC(=O)[C@H](Cc1ccc(F)cc1)NC(=O)c1cc2ccccc2o1 [14a]	44.4

In the following, a different molecule is considered.
Memo: O=C(NCc1ccccc1)C(=O)[C@H](C[C@@H]1CCCNC1=O)NC(=O)[C@H](CC1CCCCC1)NC(=O)c1cc2ccccc2o1 [14b] , reported MRT inf: 49.2

---

experiment.summary: Pharmacokinetics in mice
Format: in vivo
run.parameters: male, CD-1, mouse, plasma, iv, 14b, i.v. (10 mg/kg), read-out: MRTINF_obs
endpoint.label: MRT inf (h)
Write the value in h as a bare number.

Form field MRT inf, entry O=C(NCc1ccccc1)C(=O)[C@H](C[C@@H]1CCCNC1=O)NC(=O)[C@H](CC1CCCCC1)NC(=O)c1cc2ccccc2o1 [14b] : 1.88

---

experiment.summary: Pharmacokinetics in rats
Assay type: in vivo
run.parameters: male, SD, rat, plasma, po, p.o. (10 mg/kg)
endpoint.label: bioavailability (%)
Reply numerically in %, unit not repeated.

molecule	recorded.result
O=C(NCc1ccccc1)C(=O)[C@H](C[C@@H]1CCCNC1=O)NC(=O)[C@H](Cc1ccc(F)cc1)NC(=O)c1cc2ccccc2o1 [14a]	13

// recorded bioavailability for O=C(NCc1ccccc1)C(=O)[C@H](C[C@@H]1CCCNC1=O)NC(=O)[C@H](CC1CCCCC1)NC(=O)c1cc2ccccc2o1 [14b] : 32
